Biological target: T1, mouse IL-12Rβ2 expressed on cells (mouse, UniProt P97378 24-874)
T1 construct: HEK293T cells, stably transduced (cDNA NM_008354); also called mIL-12RB2
T1 sequence: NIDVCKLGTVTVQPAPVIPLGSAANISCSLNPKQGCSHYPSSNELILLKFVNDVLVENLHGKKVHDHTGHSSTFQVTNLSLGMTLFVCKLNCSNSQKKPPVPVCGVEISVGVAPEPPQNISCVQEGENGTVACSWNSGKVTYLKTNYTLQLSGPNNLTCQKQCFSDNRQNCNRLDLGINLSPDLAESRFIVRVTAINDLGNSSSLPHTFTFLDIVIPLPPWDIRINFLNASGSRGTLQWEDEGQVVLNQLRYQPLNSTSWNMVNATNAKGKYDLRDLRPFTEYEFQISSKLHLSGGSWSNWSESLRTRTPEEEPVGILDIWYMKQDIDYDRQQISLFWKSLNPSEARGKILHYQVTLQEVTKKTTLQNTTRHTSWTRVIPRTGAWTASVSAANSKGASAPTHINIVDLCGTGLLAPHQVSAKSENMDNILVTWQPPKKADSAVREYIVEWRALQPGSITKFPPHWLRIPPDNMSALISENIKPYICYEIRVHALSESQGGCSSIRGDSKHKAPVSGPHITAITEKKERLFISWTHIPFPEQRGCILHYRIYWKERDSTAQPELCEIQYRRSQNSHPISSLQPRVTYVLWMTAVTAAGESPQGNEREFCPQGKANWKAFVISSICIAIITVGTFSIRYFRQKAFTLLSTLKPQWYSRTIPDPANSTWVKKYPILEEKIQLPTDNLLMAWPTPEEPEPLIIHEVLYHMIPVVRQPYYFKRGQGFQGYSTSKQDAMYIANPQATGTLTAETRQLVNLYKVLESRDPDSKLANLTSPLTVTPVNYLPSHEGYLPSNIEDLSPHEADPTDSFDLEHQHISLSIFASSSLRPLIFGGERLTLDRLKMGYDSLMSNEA
Experiment: flow cytometry, P.E. VHH on HEK293T cells stably expressing mIL-12RB2
I'd appreciate it if you could supply % cells bound values for the items below.
Answers are plain numbers, in %.

# annotated cases, reported % cells bound shown
anti-IL-12Rβ2 VHH clone 3CAM36 (VHH, not shown: small tags and cut ends, tested as periplasmic extract; also called 20511) VHH: QVQLQESGGGLVQAGESLTLSCTASGRTFSSYGMGWFRQAPGKERDFVAAISRDARYTDYADSVKGRFTISKDNAKNTAYLQMNSLNPEDTAVYFCAAAYTYSGSHYVTARSGDYNYWGQGTQVTVSS    29
anti-IL-12Rβ2 VHH clone 2CRM42 (VHH, not shown: small tags and cut ends, tested as periplasmic extract; also called 20449) VHH: QVQLQESGGGLVQPGESLRLSCQASGRTFSNYRMGWFRQAPGKEREFVAGINWDGGHTYYTDSVKGRFTISRDNAKNTVYLQMNSLKPEDTAVYQCAVRVREYGSSRYEDQFDYWGQGTQVTVSS    2.93

# ---- query binder ----
Problem: May I ask what % cells bound has been recorded for anti-IL-12Rβ2 VHH clone 2CAM45 (VHH, not shown: small tags and cut ends, tested as periplasmic extract; also called 20485) VHH: QVQLQESGGGLVQAGGSLRLSCAASGFTFDDYAIGWFRQAPGKEREGISCISSSDYGTYYAGSVKGRFTISSDNAKNTVYLQMNSLKPEDTAVYYCAAEAISEYDCLGINYGMDYWGKGTQVTVSS ?
Result: 6.77
